system: Haemophilus influenzae; assay: Antimicrobial activity against Gram-negative Haemophilus influenzae ATCC 51907 after 16 to 24 hrs by micro-dilution method; assay type: functional
Measured parameter: MIC (µg/mL)

- CN[C@@H]1[C@@H](O)[C@@H](O[C@@H]2[C@@H](O)[C@H](O[C@H]3OC(CNC(=O)CN)=CC[C@H]3N)[C@@H](N)C[C@H]2N)OC[C@]1(C)O: 37.5
- CCN[C@@H]1C[C@H](N)[C@@H](O[C@H]2OC(CNC(=O)CN)=CC[C@H]2N)[C@H](O)[C@H]1O[C@H]1OC[C@](C)(O)[C@H](NC)[C@H]1O: 37.5
- NCC(=O)NC[C@H]1O[C@H](O[C@H]2[C@H](O)[C@@H](O[C@H]3O[C@H](CO)[C@@H](O)[C@H](N)[C@H]3O)[C@H](N)C[C@@H]2N)[C@H](N)C[C@@H]1O: 75

---

system: Listeria monocytogenes; assay: Antimicrobial activity against Gram-positive Listeria monocytogenes ATCC 19115 after 16 to 24 hrs by micro-dilution method; assay type: functional
Measured parameter: MIC (µg/mL)

- NCC[C@H](O)C(=O)N[C@@H]1C[C@H](N)[C@@H](O[C@H]2O[C@H](CN)[C@@H](O)[C@H](O)[C@H]2O)[C@H](O)[C@H]1O[C@H]1O[C@H](CO)[C@@H](O)[C@H](N)[C@H]1O [AMIKACIN]: 9.4
- NCC[C@@H](O)C(=O)NC[C@H]1O[C@H](O[C@@H]2[C@@H](O)[C@H](O[C@@H]3O[C@@H](CO)[C@H](O)[C@@H](N)[C@@H]3O)[C@@H](NC(=O)[C@@H](O)CCN)C[C@H]2N)[C@H](O)[C@@H](O)[C@@H]1O (stereo in doubt): 150
- NCC(=O)NC[C@H]1O[C@H](O[C@H]2[C@H](O)[C@@H](O[C@H]3O[C@H](CO)[C@@H](O)[C@H](N)[C@H]3O)[C@H](N)C[C@@H]2N)[C@H](N)C[C@@H]1O: 18.8
- NC[C@H]1O[C@H](O[C@H]2[C@H](O)[C@@H](O[C@H]3O[C@H](CO)[C@@H](O)[C@H](N)[C@H]3O)[C@H](N)C[C@@H]2N)[C@H](N)C[C@@H]1O [TOBRAMYCIN]: 2.3
- CN[C@@H]1[C@@H](O)[C@@H](O[C@@H]2[C@@H](O)[C@H](O[C@H]3OC(CNC(=O)CN)=CC[C@H]3N)[C@@H](N)C[C@H]2N)OC[C@]1(C)O: 18.8
- NC[C@H]1O[C@H](O[C@H]2[C@H](O)[C@@H](O[C@H]3O[C@H](CO)[C@@H](O)[C@H](N)[C@H]3O)[C@H](N)C[C@@H]2N)[C@H](O)[C@@H](O)[C@@H]1O [KANAMYCIN]: 4.7

---

assay: Drug metabolism assessed as Escherichia coli AAC(3)-IV mediated compound modification at 100 uM; type: ADME
Measured parameter: Drug metabolism

* NCC(=O)NC[C@H]1O[C@H](O[C@H]2[C@H](O)[C@@H](O[C@H]3O[C@H](CO)[C@@H](O)[C@H](N)[C@H]3O)[C@H](N)C[C@@H]2N)[C@H](N)C[C@@H]1O | metabolite_detected
* NCC(=O)NC[C@H]1O[C@H](O[C@H]2[C@H](O)[C@@H](O[C@H]3O[C@H](CO)[C@@H](O)[C@H](N)[C@H]3O)[C@H](N)C[C@@H]2N)[C@H](O)[C@@H](O)[C@@H]1O | metabolite_detected
* NCC[C@@H](O)C(=O)NC[C@H]1O[C@H](O[C@@H]2[C@@H](O)[C@H](O[C@@H]3O[C@@H](CO)[C@H](O)[C@@H](N)[C@@H]3O)[C@@H](NC(=O)[C@@H](O)CCN)C[C@H]2N)[C@H](O)[C@@H](O)[C@@H]1O (stereo in doubt) | metabolite_detected
* CN[C@@H]1[C@@H](O)[C@@H](O[C@@H]2[C@@H](O)[C@H](O[C@H]3OC(CNC(=O)CN)=CC[C@H]3N)[C@@H](N)C[C@H]2N)OC[C@]1(C)O | metabolite_detected

---

Reported MIC values are given for each entry in this list.
test system: Bacillus cereus; experiment: Antimicrobial activity against Gram-positive Bacillus cereus ATCC 17788 after 16 to 24 hrs by micro-dilution method; type: functional
Measured parameter: MIC (µg/mL)

- NCC[C@H](O)C(=O)N[C@@H]1C[C@H](N)[C@@H](O[C@H]2O[C@H](CN)[C@@H](O)[C@H](O)[C@H]2O)[C@H](O)[C@H]1O[C@H]1O[C@H](CO)[C@@H](O)[C@H](N)[C@H]1O [AMIKACIN]: 9.4
- NCC(=O)NC[C@H]1O[C@H](O[C@H]2[C@H](O)[C@@H](O[C@H]3O[C@H](CO)[C@@H](O)[C@H](N)[C@H]3O)[C@H](N)C[C@@H]2N)[C@H](O)[C@@H](O)[C@@H]1O: 150
- NCC(=O)NC[C@H]1O[C@H](O[C@H]2[C@H](O)[C@@H](O[C@H]3O[C@H](CO)[C@@H](O)[C@H](N)[C@H]3O)[C@H](N)C[C@@H]2N)[C@H](N)C[C@@H]1O: 18.8

---

Reported MIC values are given for each entry in this list.
system: Staphylococcus aureus; experiment: Antimicrobial activity against Gram-positive Staphylococcus aureus ATCC 29213 after 16 to 24 hrs by micro-dilution method; type: functional
Measured parameter: MIC (µg/mL)

* NCC(=O)NC[C@H]1O[C@H](O[C@H]2[C@H](O)[C@@H](O[C@H]3O[C@H](CO)[C@@H](O)[C@H](N)[C@H]3O)[C@H](N)C[C@@H]2N)[C@H](O)[C@@H](O)[C@@H]1O | 16
* N[C@H]1[C@H](O)[C@H](O[C@@H]2[C@@H](O)[C@H](O[C@@H]3O[C@@H](CNC(=O)OCc4ccccc4)[C@H](O)C[C@@H]3N)[C@@H](N)C[C@H]2N)O[C@@H](CO)[C@@H]1O (stereo in doubt) | 128
* NCC[C@@H](O)C(=O)NC[C@H]1O[C@H](O[C@@H]2[C@@H](O)[C@H](O[C@@H]3O[C@@H](CO)[C@H](O)[C@@H](N)[C@@H]3O)[C@@H](NC(=O)[C@@H](O)CCN)C[C@H]2N)[C@H](O)[C@@H](O)[C@@H]1O (stereo in doubt) | 128
* NCC[C@H](O)C(=O)N[C@@H]1C[C@H](N)[C@@H](O[C@H]2O[C@H](CN)[C@@H](O)[C@H](O)[C@H]2O)[C@H](O)[C@H]1O[C@H]1O[C@H](CO)[C@@H](O)[C@H](N)[C@H]1O | 1

---

test system: Haemophilus influenzae; test: Antimicrobial activity against Gram-negative Haemophilus influenzae ATCC 51907 after 16 to 24 hrs by micro-dilution method; assay type: functional
Reported MIC values are given for each entry in this list.
Measured parameter: MIC (µg/mL)

* CCN[C@@H]1C[C@H](N)[C@@H](O[C@H]2OC(CN)=CC[C@H]2N)[C@H](O)[C@H]1O[C@H]1OC[C@](C)(O)[C@H](NC)[C@H]1O | 2.3
* NC[C@H]1O[C@H](O[C@H]2[C@H](O)[C@@H](O[C@H]3O[C@H](CO)[C@@H](O)[C@H](N)[C@H]3O)[C@H](N)C[C@@H]2N)[C@H](O)[C@@H](O)[C@@H]1O | 9.4
* CN[C@@H]1[C@@H](O)[C@@H](O[C@@H]2[C@@H](O)[C@H](O[C@H]3OC(CN)=CC[C@H]3N)[C@@H](N)C[C@H]2N)OC[C@]1(C)O | 4.7
* NCC[C@H](O)C(=O)N[C@@H]1C[C@H](N)[C@@H](O[C@H]2O[C@H](CN)[C@@H](O)[C@H](O)[C@H]2O)[C@H](O)[C@H]1O[C@H]1O[C@H](CO)[C@@H](O)[C@H](N)[C@H]1O | 37.5
* NC[C@H]1O[C@H](O[C@H]2[C@H](O)[C@@H](O[C@H]3O[C@H](CO)[C@@H](O)[C@H](N)[C@H]3O)[C@H](N)C[C@@H]2N)[C@H](N)C[C@@H]1O | 4.7
* NCC(=O)NC[C@H]1O[C@H](O[C@H]2[C@H](O)[C@@H](O[C@H]3O[C@H](CO)[C@@H](O)[C@H](N)[C@H]3O)[C@H](N)C[C@@H]2N)[C@H](O)[C@@H](O)[C@@H]1O | 150
* N[C@H]1[C@H](O)[C@H](O[C@@H]2[C@@H](O)[C@H](O[C@@H]3O[C@@H](CNC(=O)OCc4ccccc4)[C@H](O)C[C@@H]3N)[C@@H](N)C[C@H]2N)O[C@@H](CO)[C@@H]1O (stereo in doubt) | 75

---

Reported MIC values are given for each entry in this list.
tested on: Listeria monocytogenes; experiment: Antimicrobial activity against Gram-positive Listeria monocytogenes ATCC 19115 after 16 to 24 hrs by micro-dilution method; assay type: functional
Measured parameter: MIC (µg/mL)

* CN[C@@H]1[C@@H](O)[C@@H](O[C@@H]2[C@@H](O)[C@H](O[C@H]3OC(CN)=CC[C@H]3N)[C@@H](N)C[C@H]2N)OC[C@]1(C)O | 2.3
* CCN[C@@H]1C[C@H](N)[C@@H](O[C@H]2OC(CNC(=O)CN)=CC[C@H]2N)[C@H](O)[C@H]1O[C@H]1OC[C@](C)(O)[C@H](NC)[C@H]1O | 18.8
* NCC(=O)NC[C@H]1O[C@H](O[C@H]2[C@H](O)[C@@H](O[C@H]3O[C@H](CO)[C@@H](O)[C@H](N)[C@H]3O)[C@H](N)C[C@@H]2N)[C@H](O)[C@@H](O)[C@@H]1O | 150
* CCN[C@@H]1C[C@H](N)[C@@H](O[C@H]2OC(CN)=CC[C@H]2N)[C@H](O)[C@H]1O[C@H]1OC[C@](C)(O)[C@H](NC)[C@H]1O | 2.3
